- assay.target: full-length elephant shark GR (Callorhinchus milii)
- assay.method.text: inhibition of dexamethasone-activated luciferase reporter, HEK293 cells
measured.quantity: IC50

Look up and state reported IC50 for CC#C[C@]1(O)CC[C@H]2[C@@H]3CCC4=CC(=O)CCC4=C3[C@@H](c3ccc(N(C)C)cc3)C[C@@]21C
2.2 nM

----------
Provide the recorded pEC50 for the entries that follow.
- assay.target: full-length elephant shark GR (Callorhinchus milii, UniProt V9KGN8)
- Sequence (V9KGN8 1-704): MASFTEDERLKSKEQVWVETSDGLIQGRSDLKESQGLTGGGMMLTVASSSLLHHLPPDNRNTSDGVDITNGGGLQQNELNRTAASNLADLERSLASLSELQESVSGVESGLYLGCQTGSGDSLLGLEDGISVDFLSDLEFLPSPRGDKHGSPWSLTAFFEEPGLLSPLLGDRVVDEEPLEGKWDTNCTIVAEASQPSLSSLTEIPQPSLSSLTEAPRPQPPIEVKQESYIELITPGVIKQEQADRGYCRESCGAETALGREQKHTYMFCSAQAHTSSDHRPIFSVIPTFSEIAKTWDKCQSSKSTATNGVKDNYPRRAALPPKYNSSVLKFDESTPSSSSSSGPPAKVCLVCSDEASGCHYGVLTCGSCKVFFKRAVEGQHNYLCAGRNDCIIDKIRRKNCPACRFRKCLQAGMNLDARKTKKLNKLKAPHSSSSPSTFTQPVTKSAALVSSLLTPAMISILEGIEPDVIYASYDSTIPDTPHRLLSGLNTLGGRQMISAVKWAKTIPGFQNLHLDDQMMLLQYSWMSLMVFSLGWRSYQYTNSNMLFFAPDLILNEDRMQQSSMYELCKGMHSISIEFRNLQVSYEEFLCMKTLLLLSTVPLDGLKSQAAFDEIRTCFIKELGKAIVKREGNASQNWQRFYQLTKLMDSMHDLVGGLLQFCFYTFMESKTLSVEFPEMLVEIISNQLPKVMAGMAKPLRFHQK
- assay.method.text: transactivation assay, MMTV-luciferase reporter, HEK293 cells
- Assay type: cell-based
pEC50: −log10 of the molar value.

Give pEC50 for this entry on full-length elephant shark GR (Callorhinchus milii, UniProt V9KGN8): C[C@]12CCC(=O)C=C1CC[C@@H]1[C@@H]2[C@@H](O)C[C@]2(C=O)[C@@H](C(=O)CO)CC[C@@H]12
~7.62

Give pEC50 for this entry on full-length elephant shark GR (Callorhinchus milii, UniProt V9KGN8): C[C@]12CCC(=O)C=C1CC[C@@H]1[C@@H]2[C@@H](O)C[C@@]2(C)[C@H]1CC[C@]2(O)C(=O)CO
~7.46

Give pEC50 for this entry on full-length elephant shark GR (Callorhinchus milii, UniProt V9KGN8): C[C@]12CC[C@H]3[C@@H](CCC4=CC(=O)CC[C@@]43C)[C@@H]1CC[C@@H]2C(=O)CO
~7.55
